The reported measurements were obtained from patent US20230303690A1.

# RU values compiled below
- subject_of_test: T1, LAG3 Protein, Human, Recombinant (His Tag) (Sino Biological Catalog No. 16498-H08H) (human, UniProt P18627 23-450)
- T1 construct: Bought protein; also called hLAG3-His; LAG3-His; not shown: His tag
- T1 sequence (looked up): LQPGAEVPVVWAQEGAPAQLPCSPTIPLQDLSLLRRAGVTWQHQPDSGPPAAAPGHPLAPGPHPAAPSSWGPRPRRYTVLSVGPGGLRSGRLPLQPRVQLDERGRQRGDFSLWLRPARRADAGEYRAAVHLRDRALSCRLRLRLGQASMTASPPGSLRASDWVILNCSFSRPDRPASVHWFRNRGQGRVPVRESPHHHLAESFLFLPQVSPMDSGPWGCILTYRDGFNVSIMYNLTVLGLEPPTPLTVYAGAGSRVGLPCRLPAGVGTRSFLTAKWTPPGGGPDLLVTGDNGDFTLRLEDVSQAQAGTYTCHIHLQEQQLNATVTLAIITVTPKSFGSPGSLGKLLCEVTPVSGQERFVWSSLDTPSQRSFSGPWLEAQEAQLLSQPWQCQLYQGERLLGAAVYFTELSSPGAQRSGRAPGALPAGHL
- assay_notes: SPR binning on LAG3-His; competitor 1
Please state the figure in RU; there is no need to write the unit.

Please review the entries below; each comes with its answer.
# binder, result_units, RU
rows = [
    ("sdAb No. 25 (VHH, Fc of the tested form not described; also called sdAb 25; sdAb #25; not shown: Fc part implied by anti-human Fc capture and anti-human IgG Fc detection) VHH: QLQLVESGGGLVQAGGSLRLSCAASGSIESFSFMGWYRQAPGKQRELVAGFTGAASLSFSTYTDAVKGRFTISRDNAKNTVYLQMNSLKPEDTAVYFCNVDPWSQSWPGRYWGQGTQVTVSS", "RU", 44.7),
    ("sdAb No. 20 (VHH, Fc of the tested form not described; also called sdAb 20; not shown: Fc part implied by anti-human Fc capture) VHH: QVQLVESGGGLVQPGGSLRLSCAASGLTLDGYAVGWFRQAPGKDREGLSCISGSDGSTHYLDSVKGRFTISRDNAKSTMALQMNSLQFGDTAIYYCAARRGSCSGSWTYWGQGTQVTVSS", "RU", -9.9),
    ("sdAb No. 21 (VHH, Fc of the tested form not described; also called sdAb 21; not shown: Fc part implied by anti-human Fc capture) VHH: QLQLVESGGGLVQPGGSLRLSCAASGLTLDGYAIAWFRQAPGKEREGLSCISGTDGSTHYLDSVKGRFTISRDNGKNTMALQMNSLQFGDTAIYYCAARRGSCSGSWTYWGQGTQITVSS", "RU", -4.7),
]

Consider now this further binder.
Any idea what its RU is? The binder is sdAb No. 17 (VHH, Fc of the tested form not described; also called sdAb 17; not shown: Fc part implied by anti-human Fc capture and anti-human IgG1 Fc detection) VHH: QLQLVESGGGLVQPGGSLRLSCAASGLTLDGYAIGWFRQAPGKEREGLACISGSDGSTHYLDSVKGRFTISRDNGKNTMALQMNSLQFGDTAIYYCAARRGSCSGSWTYWGQGTQVTVSS
-13.6
